# assayed.target: human recombinant serotonin (5-Hydroxytryptamine) 5-HT2C receptor (Homo sapiens)
# Construct: expressed in transfected cells; host or cells: CHO-K1 cells
# Sequence (P28335 33-458): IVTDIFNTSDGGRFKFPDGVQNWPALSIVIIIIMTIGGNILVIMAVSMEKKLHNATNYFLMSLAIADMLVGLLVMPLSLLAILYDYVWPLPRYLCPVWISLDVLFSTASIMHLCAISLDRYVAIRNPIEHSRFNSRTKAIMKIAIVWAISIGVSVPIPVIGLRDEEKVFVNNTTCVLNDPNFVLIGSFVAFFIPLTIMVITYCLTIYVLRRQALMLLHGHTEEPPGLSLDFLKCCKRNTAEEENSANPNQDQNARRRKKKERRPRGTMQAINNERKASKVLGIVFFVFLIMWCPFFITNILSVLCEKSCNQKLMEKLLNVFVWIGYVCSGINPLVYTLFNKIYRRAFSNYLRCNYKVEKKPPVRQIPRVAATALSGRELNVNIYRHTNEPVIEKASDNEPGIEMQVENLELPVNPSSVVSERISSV
# protocol.summary: Serotonin 5-HT2C radioligand binding ([3H]Mesulergine)
# experimental.setup: 1 h; read-out: Percent Inhibition of ligand binding Serotonin (1 μM ligand concentration) 5-HT2C
# Procedure: Compounds of the invention were incubated with 1 nM [^3H]Mesulergine for 60 minutes at 25° C. Non-specific binding was estimated in the presence of 1 μM Mianserin. Receptor proteins were filtered and washed, the filters were then counted to determine [^3H]Mesulergine specifically bound. […] Biochemical assay results are presented as the percent inhibition of specific binding in Table 5.
Would you mind telling me the reported inhibition at 1 µM of each entry?
Answers are plain numbers, in %.

Past entries and their recorded results:
Annotate the compound CN1CCc2c(n(CCCc3ccccc3)c3ccc(Cl)cc23)C1 [Compound 29] with its measured inhibition at 1 µM.
90

Provide only the value of recorded inhibition at 1 µM for CC1c2c(c3cc(Cl)ccc3n2CCc2ccc(F)cc2)CCN1C (stereo not drawn) [Compound 81]
88

---
Report inhibition at 1 µM, nothing else, for this compound: C/C(=C\n1c2c(c3cc(C)ccc31)CCN(C)C2)c1ccc(Cl)c(Cl)c1 [Compound 113]
91

----------
So I've got a bunch of compounds here, and I need their inhibition at 1 µM values.
# assayed.target: human recombinant dopamine D2L receptor (Homo sapiens, UniProt P14416)
# Construct: expressed in transfected cells; host or cells: CHO cells
# Sequence (P14416 whole entry): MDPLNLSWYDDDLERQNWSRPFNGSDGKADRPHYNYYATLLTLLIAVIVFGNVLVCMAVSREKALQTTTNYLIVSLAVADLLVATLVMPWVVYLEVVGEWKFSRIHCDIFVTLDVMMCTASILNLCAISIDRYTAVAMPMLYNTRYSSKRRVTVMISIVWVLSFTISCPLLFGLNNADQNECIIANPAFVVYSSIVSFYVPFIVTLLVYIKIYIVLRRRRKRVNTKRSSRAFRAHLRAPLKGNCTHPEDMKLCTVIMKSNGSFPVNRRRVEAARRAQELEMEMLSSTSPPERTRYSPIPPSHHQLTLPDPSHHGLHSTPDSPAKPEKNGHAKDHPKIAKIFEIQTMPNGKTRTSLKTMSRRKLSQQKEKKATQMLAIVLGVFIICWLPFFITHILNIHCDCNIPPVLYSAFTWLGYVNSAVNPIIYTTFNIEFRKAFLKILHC
# protocol.summary: Dopamine D2L radioligand binding ([3H]Spiperone)
# experimental.setup: 2 h, 1 μM ligand conc.; read-out: Percent Inhibition of ligand binding Dopamine (1 μM ligand conc.) D2L
Numbers only, in %.

Report inhibition at 1 µM for every entry below.
1. CC1c2c(c3cc(Cl)ccc3n2CCc2ccc(F)cc2)CCN1C (stereo not drawn) [Compound 81]
2. CN1CCc2c(n(CC(=O)O)c3ccc(Cl)cc23)C1 [Compound 52]
3. CCC1c2c(c3cc(Cl)ccc3n2CC(C)(O)c2ccc(F)cc2)CCN1C (stereo not drawn) [Compound 79]

[21, 1, 2]

----------
# assayed.target: human recombinant histamine H1 receptor (Homo sapiens)
# Construct: expressed in transfected cells; host or cells: CHO cells
# Sequence (P35367 whole entry): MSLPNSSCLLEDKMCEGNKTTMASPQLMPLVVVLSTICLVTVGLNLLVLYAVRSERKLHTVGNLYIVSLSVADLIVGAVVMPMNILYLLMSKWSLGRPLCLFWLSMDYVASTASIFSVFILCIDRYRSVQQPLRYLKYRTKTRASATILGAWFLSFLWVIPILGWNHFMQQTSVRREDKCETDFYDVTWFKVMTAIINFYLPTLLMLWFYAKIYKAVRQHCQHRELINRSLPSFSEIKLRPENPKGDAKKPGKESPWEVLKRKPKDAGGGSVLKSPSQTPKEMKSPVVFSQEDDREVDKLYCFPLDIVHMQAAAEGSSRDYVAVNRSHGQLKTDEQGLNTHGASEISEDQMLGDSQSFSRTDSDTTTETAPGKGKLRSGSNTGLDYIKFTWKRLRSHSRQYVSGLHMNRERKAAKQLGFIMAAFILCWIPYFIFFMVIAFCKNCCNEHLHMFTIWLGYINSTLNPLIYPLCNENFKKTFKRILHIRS
# protocol.summary: Histamine H1 radioligand binding ([3H]Pyrilamine)
# experimental.setup: 1 μM; read-out: Binding data (Percentage Inhibition) Histamine Binding (1 μM) H1
Respond with 1 for inhibition at 1 µM values of 40% and above, -1 for values below.

Illustrative cases are given below, each with its answer.
Exam item: decide whether the reported inhibition at 1 µM for "COc1ccc(/C(C)=C/n2c3c(c4cc(Cl)ccc42)CCN(C)C3)cc1F" is at least 40%.
-1

Could you verify whether the entry C/C(=C\n1c2c(c3cc(C)ccc31)CCN(C)C2C)c1ccc(Cl)cc1 (centres unmarked) shows inhibition at 1 µM of no less than 40%?
1

Form field: inhibition at 1 µM at least 40%? Entry: CCC1c2c(c3cc(C)ccc3n2/C=C(\C)c2ccc(Cl)cc2Cl)CCN1C (centres unmarked)
-1

hey, is inhibition at 1 µM for this one >= 40%? CN1CCc2c(n(CC(C)(O)c3ccc(F)cc3)c3ccc(Cl)cc23)C1 (centres unmarked)
1

Identify whether the reported inhibition at 1 µM of the following molecule is 40% or greater: C/C(=C/n1c2c(c3cc(C)ccc31)CCN(C)C2C)c1ccccc1F (centres unmarked)
-1

Turning now to a further record.
Could you tell me if the measured inhibition at 1 µM of "CN1CCc2c(n(CC(=O)O)c3ccc(Cl)cc23)C1" reaches 40% or more?
-1
